Known IC50 of a selection of compounds
Experimental target: KRAS G12V (Homo sapiens, UniProt P01116, G12V)
Sequence (P01116 with tags, fused parts or gaps isoform P01116-2 G12V): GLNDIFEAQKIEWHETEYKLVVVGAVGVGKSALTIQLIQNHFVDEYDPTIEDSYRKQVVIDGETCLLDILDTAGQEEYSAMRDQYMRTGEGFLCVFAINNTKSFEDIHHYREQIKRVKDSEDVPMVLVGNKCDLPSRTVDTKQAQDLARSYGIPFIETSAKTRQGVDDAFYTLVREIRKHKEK
Assay comment: SOS-catalyzed nucleotide exchange assay, KRAS G12V (Procedure A)
Format: biochemical
Details: GNE
Unit nM implied. Number only.

For orientation, consider the following solved cases.
| Compound | Experimental target | Unit annotation | IC50 |
| --- | --- | --- | --- |
| F[C@H]1CN2CCC[C@@]2(COc2nc(N3C[C@H]4CC[C@@H](C3)N4)c3c(n2)C2(CC2)c2c-3ccnc2-c2c(C3CC3)c(Cl)cc3[nH]ncc23)C1 (single isomer, unassigned) | KRAS G12V (Homo sapiens, UniProt P01116, G12V) | nM | 2120 |
| Cc1cc2[nH]ncc2c(-c2nccc3c2sc2nc(OC[C@@]45CCCN4C[C@H](F)C5)nc(N4C[C@H]5CC[C@@H](C4)N5CC(C)O)c23)c1C(F)(F)F (some centres unmarked) | KRAS G12V (Homo sapiens, UniProt P01116, G12V) | nM | 1850 |
| C#Cc1c(F)ccc2cc3[nH]ncc3c(-c3nccc4c3sc3nc(OC[C@@]56CCCN5C/C(=C\F)C6)nc(N5C[C@H]6CC[C@@H](C5)N6)c34)c12 | KRAS G12V (Homo sapiens, UniProt P01116, G12V) | nM | 48.8 |

Attention now turns to another entry.
In plain terms, FC(F)c1c(Cl)cc2[nH]ncc2c1-c1nccc2c1sc1nc(OC[C@@]34CCCN3C[C@H](F)C4)nc(N3C[C@H]4CC[C@@H](C3)N4)c12 has a documented IC50 of 8350
